Target: recombinant human GSK3β (Homo sapiens, UniProt P49841)
Sequence (P49841 whole entry): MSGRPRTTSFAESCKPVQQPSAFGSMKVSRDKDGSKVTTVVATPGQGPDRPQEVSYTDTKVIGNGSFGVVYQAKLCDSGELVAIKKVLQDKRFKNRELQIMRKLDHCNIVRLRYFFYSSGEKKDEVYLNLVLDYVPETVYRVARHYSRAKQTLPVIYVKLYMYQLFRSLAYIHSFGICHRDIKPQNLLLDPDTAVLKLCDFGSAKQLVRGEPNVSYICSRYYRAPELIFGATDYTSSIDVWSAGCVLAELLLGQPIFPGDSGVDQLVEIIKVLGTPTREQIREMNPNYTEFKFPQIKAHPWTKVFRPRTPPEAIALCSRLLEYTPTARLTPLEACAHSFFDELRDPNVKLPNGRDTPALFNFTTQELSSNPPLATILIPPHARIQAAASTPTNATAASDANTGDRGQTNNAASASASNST
Test: GSK3β Scintillation Proximity Assay (ATP competition)
Conditions: inhibition constant from ATP competition, 10 inhibitor concentrations in duplicate; ATP 1 μM; Km of ATP 20 μM
Structures can show the parent of a compound that is named as a salt.
molecules and their reported Ki
Result type: Ki

Molecule	Tgt	Result
Cc1ncc(-c2nc(Nc3ccc(CN4CCN(C)CC4)cc3)ncc2F)n1C [Example 29, hydrochloride]	recombinant human GSK3β (Homo sapiens, UniProt P49841)	126 nM
Cc1ncc(-c2nc(Nc3ccc(C(=O)N4CCN(C)CC4)cc3)ncc2F)n1C1CCCCC1 [Example 17, hydrochloride]	recombinant human GSK3β (Homo sapiens, UniProt P49841)	14 nM
COc1cc(Nc2ncc(F)c(-c3cnc(C)n3C)n2)cc(C(F)(F)F)c1 [Example 1]	recombinant human GSK3β (Homo sapiens, UniProt P49841)	10 nM
Cc1ncc(-c2nc(Nc3cccc(S(C)(=O)=O)c3)ncc2F)n1C1CCOCC1 [Example 22, hydrochloride]	recombinant human GSK3β (Homo sapiens, UniProt P49841)	22 nM

Attribution: patent US20090105252A1
